Measured values drawn from patent US4985595A for this set.

# Tested on: stress ulcer in rat
# EXPERIMENT_SUMMARY: Inhibitory effect on stress ulcer in rat (restraint and water-immersion stress method)
# Format: in vivo
# RECORDED_CONDITIONS: 100 mg/kg, oral, rat, 30 minutes before immobilization and immersion in water at 21° C. for 7 hours; *P < 0.05, **P < 0.01; read-out: Inhibitory Effect (%)
Quick rule: inhibition in vivo at 100 mg/kg of at least 40% means true (1), below that means false (0).

                           structure_smiles  label_value
0  CNC(=O)c1ccc(OC)cc1NCC(=O)NCCc1ccc(OC)c(OC)c1    false (0)
1  CCNC(=O)c1cccc(NCC(=O)NCCc2ccc(OC)c(OC)c2)c1     true (1)
2  COc1ccc(CCNC(=O)CNc2cccc(C(=O)N3CCOCC3)c2)cc1OC     true (1)
3  CNC(=O)c1cccc(NCC(=O)NCCc2ccc(OC)c(OC)c2)c1     true (1)
4  COc1ccc(CCNC(=O)CNc2cccc(C(=O)N(C)C)c2)cc1OC     true (1)
